Reported Emax values for the following molecules.
- Tested on: abc isoform of human TMEM16A channel expressed in CHO cells (Homo sapiens, UniProt Q5XXA6, DEL476-501)
- Construct: expressed in transfected cells; host or cells: CHO cells, doxycycline-inducible expression under Blasticidin/Zeocin selection
- Sequence (Q5XXA6 with tags, fused parts or gaps isoform Q5XXA6-5 DEL539-564): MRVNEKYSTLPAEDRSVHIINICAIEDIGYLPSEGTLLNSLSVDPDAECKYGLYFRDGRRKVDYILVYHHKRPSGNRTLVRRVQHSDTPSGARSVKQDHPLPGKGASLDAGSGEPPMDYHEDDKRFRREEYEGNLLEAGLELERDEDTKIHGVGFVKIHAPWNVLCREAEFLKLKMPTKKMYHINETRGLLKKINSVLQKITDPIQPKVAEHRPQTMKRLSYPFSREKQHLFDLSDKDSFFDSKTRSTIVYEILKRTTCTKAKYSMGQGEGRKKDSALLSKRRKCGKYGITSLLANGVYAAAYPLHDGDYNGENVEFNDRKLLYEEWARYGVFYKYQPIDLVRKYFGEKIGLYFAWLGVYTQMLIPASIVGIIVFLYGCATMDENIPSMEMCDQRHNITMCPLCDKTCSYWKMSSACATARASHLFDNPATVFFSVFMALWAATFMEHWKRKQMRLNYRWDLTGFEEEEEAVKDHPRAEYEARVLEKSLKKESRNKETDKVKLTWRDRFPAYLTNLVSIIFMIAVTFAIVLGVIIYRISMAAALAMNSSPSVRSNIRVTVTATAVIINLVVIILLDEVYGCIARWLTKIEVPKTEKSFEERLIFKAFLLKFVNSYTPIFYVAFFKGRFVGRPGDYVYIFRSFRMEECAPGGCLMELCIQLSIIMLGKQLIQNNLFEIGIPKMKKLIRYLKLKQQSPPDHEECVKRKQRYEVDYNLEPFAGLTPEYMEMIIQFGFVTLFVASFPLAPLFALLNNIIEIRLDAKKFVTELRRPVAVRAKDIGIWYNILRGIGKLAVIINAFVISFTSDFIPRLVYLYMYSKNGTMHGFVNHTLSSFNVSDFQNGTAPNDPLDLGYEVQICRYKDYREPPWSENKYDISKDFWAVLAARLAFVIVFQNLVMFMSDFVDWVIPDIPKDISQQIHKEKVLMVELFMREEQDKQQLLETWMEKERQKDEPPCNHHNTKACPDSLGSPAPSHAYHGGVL
- Assay overview: Automated patch clamping (QPatch) assay to measure TMEM16A activity in whole-cell
- Assay type: cell-based
- Test context: CHO, maximum current at highest dose relative to reference potentiator at maximal concentration (upper limit) and vehicle (lower limit); read-out: TMEM16A QPATCH assay EC50 V3 Assay Window (% TMEM16A max activation)
# number only, unit % dropped from output

CCC(NC(=O)c1cnc(-c2cccc(-c3cc(C(=O)N[C@@H](C)C4CC4)[nH]n3)c2)o1)C1CC1 (stereo partly shown) ... 59
CC(C)[C@H](NC(=O)c1cnc(-c2cccc(-c3nnc(C(=O)N[C@@H](C)C4CC4)[nH]3)c2)o1)C(=O)OC(C)(C)C ... 119
CCOC(=O)[C@@H](NC(=O)c1cnc(-c2cccc(-c3cc(C(=O)NC(C4CC4)C4CC4)[nH]n3)c2)o1)C(C)C ... 87
CCOC(=O)[C@@H](NC(=O)c1cc(-c2cccc(-c3ncc(C(=O)NC(CC)CC)o3)c2)nn1CCO)C(C)C ... 110

Ask | Item CCOC(=O)[C@@H](NC(=O)c1cnc(-c2cccc(-c3cc(C(=O)NC(CC)C(F)(F)F)[nH]n3)c2)o1)C(C)C (stereo partly shown) has what recorded Emax?
Reply | 119

Ask | Which Emax value is on record for CCC(CC)NC(=O)c1cnc(-c2cccc(-c3cc(C(=O)N[C@@H](CC(C)C)C(=O)NCC(=O)OC(C)(C)C)n[nH]3)c2)o1 ?
Reply | 111

Ask | I would be grateful if you could share the reported Emax for CCC(CC)NC(=O)c1cnc(-c2cccc(-c3cc(C(=O)N4CCC(C(=O)OC)C4)n[nH]3)c2)o1 (stereo not shown) .
Reply | 90

Ask | Emax for CCC(CC)NC(=O)c1cc(-c2cccc(-c3ncc(C(=O)NC(CC)CC)o3)c2)n[nH]1 ?
Reply | 112

Ask | Need Emax of CCC(CC)NC(=O)c1cnc(-c2cccc(-c3cc(C(=O)NC4(C5CC5)CC4)n[nH]3)c2)o1 , thanks.
Reply | 122

----------
// reported pEC50 per item
- Tested on: abc isoform of human TMEM16A channel expressed in CHO cells (Homo sapiens, UniProt Q5XXA6, DEL476-501)
- Assay overview: Automated patch clamping (QPatch) assay to measure TMEM16A activity in whole-cell
- Test context: CHO cells expressing human TMEM16A (abc), whole-cell automated patch clamp, Hill fit; read-out: TMEM16A QPATCH assay EC50 V3 EC50
Quick note: pEC50 means taking -log10 of the concentration in moles per liter.

Worked examples, 3 compounds total:
CCC(CC)NC(=O)c1cc(-c2cccc(-c3ncc(C(=O)NCc4ccccc4)o3)c2)[nH]n1 ... 6.89
CCC(CC)NC(=O)c1cc(-c2cccc(-c3ncc(C(=O)NC(C)(C)CCc4ccccc4)o3)c2)[nH]n1 ... 6.80
CCC(CC)NC(=O)c1cnc(-c2cccc(-c3cc(C(=O)N[C@@H](C)c4ccccc4)n[nH]3)c2)o1 ... 6.82

Ask | What value of pEC50 has been reported for the following compound? CC(C)[C@H](NC(=O)c1cnc(-c2cccc(-c3nnc(C(=O)N[C@@H](C)C4CC4)[nH]3)c2)o1)C(=O)OC(C)(C)C
Reply | 7.15

Ask | Given the entry CCC(CC)NC(=O)c1cnc(-c2cccc(-c3ncc(C(=O)NC(CC)CC)o3)c2)o1 , report its measured pEC50.
Reply | 6.85

Ask | Name the reported pEC50 value associated with the compound COC(=O)[C@@H](NC(=O)c1cnc(-c2cccc(-c3cc(C(=O)NC(C4CC4)C4CC4)n(CCO)n3)c2)o1)C(C)C
Reply | 7.05

Ask | Give its pEC50 value. Item: CCOC(=O)[C@@H](NC(=O)c1cnc(-c2cccc(-c3cc(C(=O)NC(C4CC4)C4CC4)n(CCO)n3)c2)o1)C(C)C
Reply | 6.89
